System: MOLT-4
Test: NCI tumour cell line growth inhibition, 48 h
Activity calls are given as the source filed them. No stated cut-off is given here; in the data, active = GI50 up to about 1.1 µM and inactive = higher.
Measurement type: GI50

Any idea what GI50 was measured for `O=S1(=O)OCCOS(=O)(=O)C1(I)I` ?
15.9 µM (inactive)

Any idea what GI50 was measured for `O=C1Nc2ccc(S(=O)(=O)O)cc2/C1=C1/Nc2ccc(Br)cc2C1=O` ?
> 100 µM (inactive)

Any idea what GI50 was measured for CSc1nc(-c2ccc(Cl)cc2)c(C#N)c(=O)n1C1OC(COC(C)=O)C(OC(C)=O)C(OC(C)=O)C1OC(C)=O (stereo not given) ?
> 75 µM (inactive)

Any idea what GI50 was measured for COc1cccc(NC(=O)/C(CC(=O)CC(c2ccccc2)c2c(O)c3ccccc3oc2=O)=N\NC(C)(C)C)c1OC (stereo not given) ?
28.7 µM (inactive)

Any idea what GI50 was measured for `Cc1ccc(/N=N/c2c(O)ccc3ccccc23)cc1` ?
46.8 µM (inactive)

----------
Tested on: MOLT-4
Experiment: NCI tumour cell line growth inhibition, 48 h
Active and inactive are the calls of the source. Cut-off read from the data, not from the text of the source: active = GI50 up to about 1.1 µM and inactive = higher.
Pick from True (active), False (inactive) when you respond.

What did this assay record as the result for `COc1cccc(/C=C2\SC(=S)N(/C=C3\C(=O)Oc4ccccc4C3=O)C2=O)c1O` ?
False

What did this assay record as the result for COC(=O)C1(Cc2ccccc2)Cc2c(C)ccc(C)c2C1=O (stereo not drawn) ?
False

What did this assay record as the result for CCOC(=O)C(C(=O)OCC)=C1NC2(c3ccccc3Nc3ccc(C)cc32)C(C(=O)OC)S1 (stereo not drawn) ?
False

What did this assay record as the result for COc1ccc(/C=C2/C(=O)C(c3ccccc3)N(c3ccccc3)C2=O)cc1OC (stereo not drawn) ?
False

What did this assay record as the result for CC1CC/C(=C\c2ccc(F)cc2)C2=C1C(c1ccc(F)cc1)n1c(s/c(=C/c3cccc(Br)c3)c1=O)=N2 (stereo not drawn) ?
False

What did this assay record as the result for `COC(=O)/C=C/C(=O)Nc1cc(Cl)c(Cl)cc1CC(=O)N(C)[C@H]1CCCC[C@@H]1N1CCCC1` ?
False

What did this assay record as the result for `CC(=O)Nc1ccc(CNc2cc(=O)n(C)c(=O)[nH]2)cc1` ?
False

What did this assay record as the result for `COCn1c(=O)n(C)c(=O)c2c1nc1c(c(=O)n(C)c(=O)n1COC)[n+]2[O-]` ?
False

What did this assay record as the result for CCOC(=O)/C=C1\Nc2ccccc2C(c2ccccc2)=NC1OC(C)=O (stereo not drawn) ?
False

What did this assay record as the result for `O=c1ccs[nH]1` ?
False

What did this assay record as the result for `CCN(CCCl)CCCCCNc1c2ccccc2nc2ccc(OC)cc12` ?
True

What did this assay record as the result for `C/N=C(/NC)N(C)c1nc(=[N+](C)C)ss1.[O-][Cl+3]([O-])([O-])[O-]` ?
False

What did this assay record as the result for O=C(O)C(F)(OC(F)(F)C(F)(OC(F)(F)C(F)(F)C(F)(F)F)C(F)(F)F)C(F)(F)F (stereo not drawn) ?
False

What did this assay record as the result for `C#Cc1cc(-c2nc3ccccc3s2)ccc1N` ?
False

What did this assay record as the result for O=C1C=C(C2OC(CO)C(O)C2O)C(=O)N1 (stereo not drawn) ?
False

What did this assay record as the result for O=C1C(Cl)C(c2ccc(Cl)cc2)N1n1cnc2ccccc2c1=O (stereo not drawn) ?
False

What did this assay record as the result for COC(=O)C1C(O)C(C(=O)OC)C(C)N(C)C1C (stereo not drawn) ?
False

What did this assay record as the result for `CCOc1ccc(NC(=O)C(=O)CC(=O)c2sc(NNC(C)=O)nc2C)cc1` ?
False

What did this assay record as the result for CCc1ccccc1NC(=O)C(=O)C(C#N)c1ccccc1Cl (stereo not drawn) ?
False

What did this assay record as the result for CC(NC(=O)C(N)Cc1ccc(O)cn1)C(=O)O (stereo not drawn) ?
False

What did this assay record as the result for `COc1cc2nc(-c3ccc4ccccc4c3)nc(O)c2cc1OC` ?
False

What did this assay record as the result for `CC(=O)Nc1nc(Cl)cc(NCC2(CO)CCC2)n1` ?
False

What did this assay record as the result for CC(C)C1CC(CO)(CNc2cc(Cl)nc(N)n2)C1 (stereo not drawn) ?
False
